- Assay text: soluble on expression in E. coli; label from the status in PepcDB or PDB records
Readout type: soluble on expression in E. coli

Answered cases to consult:
[[record]]
biopolymer_sequence = "MIELSHEEELRYNRQIILKSVDFDGQEKLKASKMLIVGLGGLGCAASQYLAAAGVGNLTLLDFDTVSLSNLQRQVLHCDARLNMPKVESAKIALEQINPHINIETINAKLDEEKLAEIIPHFDIVLDCTDNVEIRNQLDRQCNHMKVPLISGAAIRMEGQVSVFTYEPNTPTYRDLSKLFRQNVLSCVEAGVLAPIVGIVGCIQALEAIKVRLKIGKNLCGRLLMIDGFSMNIREIKLPTNME"
readout_type = "soluble on expression in E. coli"
value_observed = "not soluble"

[[record]]
biopolymer_sequence = "MKGNALCTGEPVMTIETRGGGSEDIAVLPLDPTGNITRLFIRERCNDSSDPECKTGQWRLGSVDISRENTPASTRYAWRPGNNASEDDFEPLGMSLVPGNTPGEGTLFVIDIARPQSVRIWQLDISGGEITKATLATPADTQTGARLTAANSLQAVRNDDSRSFHLTITRFDEYGLLPFRPTPWPALVRINNGVIQPPPAQDFRNANGIIRPCAGCDLVIASYWERRLRFVSKENGEIGEYASAELPIRPDNLRLDGERILIAGQRRVDLTALNLLVSPHIPSPSGVYAIDTRSLGPDTVPTLLWEGGWKHGHSVATAVALPGNRLAIGQINTPGILIADCSPLEHHHHHH"
readout_type = "soluble on expression in E. coli"
value_observed = "not soluble"

[[record]]
biopolymer_sequence = "AGTGVVSVQFNNGSSPASSNSIYARFKVTNTSGSPINLADLKLRYYYTQDADKPLTFWCDHAGYMSGSNYIDATSKVTGSFKAVSPAVTNADHYLEVALNSDAGSLPAGGSIEIQTRFARNDWSNFDQSNDWSYTAAGSYMDWQKISAFVGGTLAYGSTP"
readout_type = "soluble on expression in E. coli"
value_observed = "soluble"

[[record]]
biopolymer_sequence = "MGSDKIHHHHHHMQFLDDSLHPENQDKVVITVAPYGPEWMPQDFPEDIPVTMEEQVQKAVDCYNAGATVLHLHVRELDGKGSKRLSKFNELIAGVRAAVPDMIIQVGGSISFAPEDDGQAAKWLSDDTRHMLADLDPKPDQVTVAINTTQMNIMELLYPEYLEGTSLSHPAYVEAYREMTVPAGPGWVEEHLRRLSNAGIQPHFQLTGIHAMETLERMVRAGKYKGPLNLTWIGIGGGFDGPNPFNFVNFVHRAPDGCTLTAESLLKNVLPFNMMAMAMGLHPRCGIEDTIIDQHGNRMTSVQQIEQCVRVARELGREIASGKEAREIYRIGTWYDSAEETLEAHGMAPNRKAGQKNLPLRKAA"
readout_type = "soluble on expression in E. coli"
value_observed = "not soluble"


As a next step, examine the sequence that follows.
Indicate the recorded soluble on expression in E. coli value for this sequence: ETIASELKAIGKELEDQKKEENIQIAKIAKEKFDFLSTFKVGPYDLIDEDIQMKIKRTLYSSLDYKKENIEKLKEILEILKKNSEHYNIIGRLIYHISWGIQFQIEQNLELIQNGVENLSQEESKSLLMQIKSNLEIKQRLKKTLNETLKVYNQNTQDNEKILAEHFNKYYKDFDTLKPAF
soluble
